Let's look at some molecules and their measured inhibition of aggregation.
- assayNotes: inhibitors of mutant huntingtin aggregation, primary screen, imaging, exon1htt(103Q)mCFP cells, high-content imaging (AID 483);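 note: compound exposure lasted 3 days before fixation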
- conditionContext: exon1htt(103Q)mCFP cell line, aggregate imaging, at 2 µM; stronger effect = higher value
Return type: number; implicit unit %.

Example entries begin here.
molecule	observedProperty	obsValue
Cc1nnc2n(-c3ccc(Cl)cc3)c(=O)c3c4c(sc3n12)CN(C)CC4	inhibition of aggregation	8.9
COc1ccc(S(=O)(=O)N2CCCC2C(=O)Nc2ccc(C)cc2)cc1 (centres undefined)	inhibition of aggregation	-25
CCOC(=O)C1=C(C)NC(=O)NC1c1ccc(OCCO)c(OC)c1 (centres undefined)	inhibition of aggregation	-2.9
CCOC(=O)C1CCN(C(=O)CCCCn2c(=O)[nH]c3ccccc3c2=O)CC1	inhibition of aggregation	-27.5
CCOc1ccc(Nc2nc(Cc3nnc(SCC(N)=O)o3)cs2)cc1	inhibition of aggregation	-0.8
CC1(C)NC(=O)N(CC(O)CN2CCCC2)C1=O (centres undefined)	inhibition of aggregation	4.1

Just so you know, measured inhibition of aggregation for C=CCOc1ccc(C2/C(=C(\O)c3c(C)[nH]c(C(=O)OC)c3C)C(=O)C(=O)N2CCN(C)C)cc1 (centres undefined) came out at -6.9

Notebook: Cn1c(=O)c2c(nc(NCCCO)n2C/C=C/c2ccccc2)n(C)c1=O , inhibition of aggregation read as 1.8

In plain terms, COc1ccc(/C(O)=C2/C(=O)C(=O)N(CCCN(C)C)C2c2ccc(Cl)cc2)cc1OC (centres undefined) has a documented inhibition of aggregation of -28.5

Summary for this molecule, CCCCn1c(CNC(=O)CCC)nc2ccccc21 : inhibition of aggregation is -10.7

The recorded inhibition of aggregation for Cn1cnc(S(=O)(=O)NCc2cccs2)c1 is -26.8

molecule O=C(Nc1ccc(N2CCCCC2)cc1)c1ccc(F)cc1 , inhibition of aggregation observed: -17.8

Reported inhibition of aggregation ( Cc1sc(NC(=O)CSc2nnc(COc3ccccc3)n2C)c(C#N)c1C ) = 15.6
